Would you kindly list ELISA virus binding (OD450) for each of these binders?
- study-target: hemagglutinin (HA) of influenza A/Japan/305/57 (H2N2) on whole virions (Influenza A virus A/Japan/305/1957(H2N2), UniProt P03451 16-562)
- method-description: ELISA; BCC supernatant on coated inactivated whole virions
Give bare numbers, in OD450.

Example results:
binder	ELISA virus binding (OD450)
TCN-527 (5086_C06) (antibody, V domains shown) VH: QVQLQESGPGLVKPSETLSLNCAVSGGSISNYYWSWIRQPPGKGLEWIGYISYNGRPKYNPSLTSRVTISVDTSKDQFSLELRSVTAADTALYYCARETRFGELLSPYDAFEIWGQGTMVTVSS VL: DIQMTQSPSSLSASVGDRVTMTCRASQNIRSYLNWYQQRPGTAPKLLIYAASTLHSGVPSRFSGGGSGTDFTLTINNLQPEDFASYYCQQSYDNPQTFGQGTKVEIK	1.48
TCN-532 (5262_H18) (antibody, V domains shown) VH: QVQLQESGPGLVKPSETLSLTCTVSGGSVSSETYYWSWIRQPPGKGLEWIGYIYYIGNTDYRPSLKSRVTISLDTSKNQFSLKLSSVTAADTAVYYCARGAYYDSSGYPAFYIWGQGTMVTVSS VL: QSVLTQPPSVSGAPGQRVTISCTGSSSNIGSDYDVHWYKQLPGTAPKLLIFGNSNRPSGVPDRFSGSKSGTSASLAITGLQAEDEADYYCQSYDSSLSGFHVFGSGTKVTVL	0.07
TCN-523 (5248_A17) (antibody, V domains shown) VH: QVQLVQSGAEVKKPGSSVKVSCKASGGSFSNYAFSWVRQAPGQGLEWMGGTIPLLGTTNYAQKFQGRVTISADQFTSTAYMELGSLRSEDTAVYYCTRRKMTTAFDSWGQGTLVTVSS VL: QPVLTQPPSASASLGASVTLTCTLSSAYSNYKVDWYQQRPGKGPRFVMRVGTGGIVGSKGDGIPDRFSVLGSGLNRYLTIKNIQEEDESDYHCGADHGSGSNFVSPYVFGGGTKLTVL	1.62
TCN-564 (5256_A17b) (antibody, V domains shown) VH: QVQLVQSGADVKKPGSSVTVSCKASGGSFSNYGINWVRQAPGQGLEWMGGIIPLINAPNYAPKFQGRVTITADMFSNIVSLQLTSLRTDDTAVYYCARRKMTTAIDYWGQGTLVTVSS VL: QPVLSQPPSASASLGASVTLTCTLSSGFDNYQVAWYQQRPGKGPRFVMRVGNGGNVASKGDGIPDRFSVSGSGLNRYLTIKNIQEDDESDYYCGADHGSGNNFVSPYVFGGGTKLTVL	1.1
TCN-535 (5246_P19) (antibody, V domains shown) VH: QVQLVQSGSEVKKPGTSVKVSCTASGSVFTNYGISWVRQAPGQGLEWMGGIIPLFGAAKYAQKFQGRVTITADESTKTVYMELSRLTSKDTAIYFCAKAPRVYEYYFDQWGQGTPVTVSS VL: EIVLTQSPGTLSLSPGERATLSCRASQSVSSSQLAWYQQKPGQAPRLIIYGASTRATGIPDRFSGSGSGTDFTLTIGRLEPEDFAVFFCQQYSTSPPTFGQGTKVDFK	1.46
TCN-539 (5056_A08) (antibody, V domains shown) VH: QVQLVESGGGVVQPGRSLRLSCAASEITFITYAMHWVRQAPGKGLEWVALISDDGSNKFYADSVKGRFTISRDNSKNTLYLQMNSLRAEDTAAYYCAREGVYFDSGTYRGYFDYWGQETLVTVSS VL: EIVLTQSPATLSLSPGERATLSCRASQSVSSYLAWYQQKPGQAPRLLIYDASNRATGIPARFSGSGSGTDFTLTISSLEPEDFAVYYCQQRSHWPPITFGQGTRLEIK	0.06
TCN-540 (5060_F05) (antibody, V domains shown) VH: QVQLVQSGGGVVQPGRSLRLSCAASGFTFSSYAMHWVRQAPGKGLEWVAIISYDGNDQYYTDSVKGRFTISRDSSKVYLQMHRLRPEDTAVYYCAKEFETSGYFHGSFDYWGQGILVTVSS VL: QSALTQPASVSGSPGQSITISCTGTSSDVGGYNYVSWYQQHPGKAPKLLIYEVTNWPSGVSNRFSGSKSGNTASLTISGLQAEDEADYYCSSYAGSSTWVFGGGTRVTVL	3.62

In: Please look up its ELISA virus binding (OD450): TCN-555 (5246_L16) (antibody, V domains shown) VH: QVQLVQSGAEVKRPGSSVKVSCTASGGIFRKNAISWVRQAPGQGLEWMGGIIAVFNTANYAQKFQNRVKITADESGNTAYMELSSLTSDDTAVYYCASHPKYFYGSGSYPDFWGQGTLVTVSS VL: QSALTQPRSVSGSPGQSITISCTGGSSDIGASNSVSWYQQHPGKAPKLVIFDVTERPSGVPHRFSGSKSGNTASLTVSGLQPDDEADYFCCAYGGKYLVVFGGGTKVTVL
Out: 0.6
